test system: conscious dogs (beagles); assay: Effect on heart rate and arterial blood pressure of conscious dogs; assay type: in vivo, dog; conditions: methyl cellulose 1% + 2% DMSO, 24 mg/kg oral, 210 min; preliminary value 114
RECORDED METRIC: MAP (mmHg)
Field: numeric (mmHg). Do not append units.

IN: // query MAP value for entry c1ccn2c(=Nc3ccncc3)snc2c1 [Example 2b]
OUT: 109

---

test system: conscious dogs (beagles); assay: Effect on heart rate and arterial blood pressure of conscious dogs; type: in vivo, dog; conditions: edible oil + 2% DMSO, 24 mg/kg oral, 180 min; preliminary value 171
RECORDED METRIC: SBP
Just the number plus its unit, please.

IN: Value lookup for SBP; key = c1ccn2c(=Nc3ccncc3)snc2c1
OUT: 179 mmHg

---

tested on: conscious dogs (beagles); assay: Effect on heart rate and arterial blood pressure of conscious dogs; format: in vivo, dog; details: methyl cellulose 1% + 2% DMSO, 24 mg/kg oral, 150 min; preliminary value 70
RECORDED METRIC: DBP (mmHg)
Form entry: value (mmHg) — number only.

IN: Which DBP reading was recorded for the compound c1ccn2c(=Nc3ccncc3)snc2c1 [Example 2b] ?
OUT: 64

---

system: conscious dogs (beagles); experiment: Effect on heart rate and arterial blood pressure of conscious dogs; assay type: in vivo, dog; settings: methyl cellulose 1% + 2% DMSO, 24 mg/kg oral, 120 min; preliminary value 172
RECORDED METRIC: SBP (mmHg)
Numeric only. Scale: mmHg

IN: So what's the measured SBP for this one? c1ccn2c(=Nc3ccncc3)snc2c1
OUT: 173

---

test system: conscious dogs (beagles); assay: Effect on heart rate and arterial blood pressure of conscious dogs; format: in vivo, dog; details: methyl cellulose 1% + 2% DMSO, 24 mg/kg oral, 360 min; preliminary value 70
RECORDED METRIC: DBP
Record the result as a number with its unit.

IN: // lookup DBP for c1ccn2c(=Nc3ccncc3)snc2c1 [Example 2b]
OUT: 65 mmHg

---

Test system: conscious dogs (beagles)
Assay: Effect on heart rate and arterial blood pressure of conscious dogs
Assay type: in vivo, dog
Details: methyl cellulose 1% + 2% DMSO, 24 mg/kg oral, 150 min; preliminary value 114
Experimental: The behaviour of the dogs was normal. Effect on heart rate and on arterial blood pressure of conscious dogs after oral administration of 24 mg/kg of the compound of […]
RECORDED METRIC: MAP (mmHg)
Form entry: value (mmHg) — number only.

IN: # get_value(readout='MAP', item= c1ccn2c(=Nc3ccncc3)snc2c1 )
OUT: 112

---

system: conscious dogs (beagles); assay: Effect on heart rate and arterial blood pressure of conscious dogs; format: in vivo, dog; conditions: edible oil + 2% DMSO, 24 mg/kg oral, 240 min; preliminary value 79
RECORDED METRIC: HR (beats/min)
Number in beats/min, nothing else.

IN: Given the entry c1ccn2c(=Nc3ccncc3)snc2c1 [Example 2b] , report its measured HR.
OUT: 93

---

System: conscious dogs (beagles)
Assay: Effect on heart rate and arterial blood pressure of conscious dogs
Format: in vivo, dog
Conditions: methyl cellulose 1% + 2% DMSO, 24 mg/kg oral, 30 min; preliminary value 172
Method: The behaviour of the dogs was normal. Effect on heart rate and on arterial blood pressure of conscious dogs after oral administration of 24 mg/kg of the compound of […]
RECORDED METRIC: SBP (mmHg)
Number only, in mmHg; omit the unit.

IN: Looking for the measured SBP of c1ccn2c(=Nc3ccncc3)snc2c1 , can you help?
OUT: 179

---

test system: conscious dogs (beagles); assay: Effect on heart rate and arterial blood pressure of conscious dogs; type: in vivo, dog; details: methyl cellulose 1% + 2% DMSO, 24 mg/kg oral, 30 min; preliminary value 70
RECORDED METRIC: DBP (mmHg)
Output spec: scalar in mmHg, unitless text.

IN: Reported DBP, compound c1ccn2c(=Nc3ccncc3)snc2c1 [Example 2b] : ____
OUT: 65

---

system: conscious dogs (beagles); assay: Effect on heart rate and arterial blood pressure of conscious dogs; assay type: in vivo, dog; conditions: edible oil + 2% DMSO, 24 mg/kg oral, 150 min; preliminary value 66
RECORDED METRIC: DBP (mmHg)
Note: unit mmHg is implicit; provide only the numeric part.

IN: For the molecule c1ccn2c(=Nc3ccncc3)snc2c1 , what DBP is on record?
OUT: 63

---

system: conscious dogs (beagles); test: Effect on heart rate and arterial blood pressure of conscious dogs; format: in vivo, dog; conditions: edible oil + 2% DMSO, 24 mg/kg oral, 210 min; preliminary value 171
RECORDED METRIC: SBP (mmHg)
Express it in mmHg; write the number only.

IN: I have this compound here, c1ccn2c(=Nc3ccncc3)snc2c1 , and I need its recorded SBP.
OUT: 174

---

test system: conscious dogs (beagles); assay: Effect on heart rate and arterial blood pressure of conscious dogs; assay type: in vivo, dog; conditions: methyl cellulose 1% + 2% DMSO, 24 mg/kg oral, 30 min; preliminary value 114
RECORDED METRIC: MAP

IN: Request the reported MAP associated with c1ccn2c(=Nc3ccncc3)snc2c1
OUT: 114 mmHg

---

Test system: conscious dogs (beagles)
Experiment: Effect on heart rate and arterial blood pressure of conscious dogs
Assay type: in vivo, dog
Details: methyl cellulose 1% + 2% DMSO, 24 mg/kg oral, 90 min; preliminary value 172
Experimental: The behaviour of the dogs was normal. Effect on heart rate and on arterial blood pressure of conscious dogs after oral administration of 24 mg/kg of the compound of […]
RECORDED METRIC: SBP

IN: Endpoint output: SBP of c1ccn2c(=Nc3ccncc3)snc2c1 . Value?
OUT: 172 mmHg

---

tested on: conscious dogs (beagles); test: Effect on heart rate and arterial blood pressure of conscious dogs; format: in vivo, dog; conditions: edible oil + 2% DMSO, 24 mg/kg oral, 210 min; preliminary value 79
RECORDED METRIC: HR (beats/min)
API: value field is a number in beats/min; no unit string.

IN: Fill in: HR of c1ccn2c(=Nc3ccncc3)snc2c1 is ___
OUT: 86

---

tested on: conscious dogs (beagles); assay: Effect on heart rate and arterial blood pressure of conscious dogs; assay type: in vivo, dog; settings: edible oil + 2% DMSO, 24 mg/kg oral, 150 min; preliminary value 111
RECORDED METRIC: MAP
Please answer using the number first and the unit second.

IN: Value wanted: MAP (conscious dogs (beagles)) of entry c1ccn2c(=Nc3ccncc3)snc2c1 [Example 2b]
OUT: 113 mmHg

---

tested on: conscious dogs (beagles); assay: Effect on heart rate and arterial blood pressure of conscious dogs; type: in vivo, dog; conditions: methyl cellulose 1% + 2% DMSO, 24 mg/kg oral, 210 min; preliminary value 172
RECORDED METRIC: SBP (mmHg)
Write the answer as a number in mmHg, unit excluded.

IN: Look up SBP: c1ccn2c(=Nc3ccncc3)snc2c1
OUT: 169

---

tested on: conscious dogs (beagles); experiment: Effect on heart rate and arterial blood pressure of conscious dogs; type: in vivo, dog; conditions: edible oil + 2% DMSO, 24 mg/kg oral, 90 min; preliminary value 171
RECORDED METRIC: SBP
Output should be the measured figure followed by the unit it is expressed in.

IN: Fill in: SBP of c1ccn2c(=Nc3ccncc3)snc2c1 is ___
OUT: 173 mmHg

---

system: conscious dogs (beagles); assay: Effect on heart rate and arterial blood pressure of conscious dogs; assay type: in vivo, dog; settings: edible oil + 2% DMSO, 24 mg/kg oral, 360 min; preliminary value 79
RECORDED METRIC: HR (beats/min)
// note: answer is a bare numeric in beats/min

IN: Reported HR, compound c1ccn2c(=Nc3ccncc3)snc2c1 : ____
OUT: 91

---

system: conscious dogs (beagles); experiment: Effect on heart rate and arterial blood pressure of conscious dogs; type: in vivo, dog; details: methyl cellulose 1% + 2% DMSO, 24 mg/kg oral, 60 min; preliminary value 70
RECORDED METRIC: DBP (mmHg)
The figure you give is taken to be in mmHg; do not add the unit.

IN: Give conscious dogs (beagles) DBP for c1ccn2c(=Nc3ccncc3)snc2c1
OUT: 66

---

tested on: conscious dogs (beagles); assay: Effect on heart rate and arterial blood pressure of conscious dogs; assay type: in vivo, dog; settings: methyl cellulose 1% + 2% DMSO, 24 mg/kg oral, 90 min; preliminary value 83
RECORDED METRIC: HR (beats/min)
The reply should be a number in beats/min, with the unit left off.

IN: Please state recorded HR (tested on conscious dogs (beagles)) of c1ccn2c(=Nc3ccncc3)snc2c1
OUT: 83

---

test system: conscious dogs (beagles); assay: Effect on heart rate and arterial blood pressure of conscious dogs; assay type: in vivo, dog; conditions: methyl cellulose 1% + 2% DMSO, 24 mg/kg oral, 120 min; preliminary value 70
RECORDED METRIC: DBP (mmHg)
Give just the numeric value; mmHg need not be written.

IN: Look up DBP: c1ccn2c(=Nc3ccncc3)snc2c1 [Example 2b]
OUT: 64
